The reported numbers originate from BigSolDB 2.1.

- study_conditions: in acetonitrile, 313.15 K
reported_endpoint: solubility (mole fraction)
Please give only the number in your answer, with no unit.

Exercise: Any idea what its solubility (mole fraction) is? The compound is O=C(N[C@@H](Cc1ccc(O)cc1)C(=O)O)OCC1c2ccccc2-c2ccccc21
Key: 0.00432

---

- study_conditions: in sec-butanol, 313.15 K
reported_endpoint: solubility (mole fraction)
Please give only the number in your answer, with no unit.

Exercise: Any idea what its solubility (mole fraction) is? The molecule is O=C(N[C@@H](Cc1ccc(O)cc1)C(=O)O)OCC1c2ccccc2-c2ccccc21
Key: 0.0323

---

- study_conditions: in n-pentanol, 333.15 K
reported_endpoint: solubility (mole fraction)
Please give only the number in your answer, with no unit.

Exercise: Any idea what its solubility (mole fraction) is? The compound is O=C(N[C@@H](Cc1ccc(O)cc1)C(=O)O)OCC1c2ccccc2-c2ccccc21
Key: 0.0388

---

- study_conditions: in isopropanol, 328.15 K
reported_endpoint: solubility (mole fraction)
Please give only the number in your answer, with no unit.

Exercise: Any idea what its solubility (mole fraction) is? The molecule is O=C(N[C@@H](Cc1ccc(O)cc1)C(=O)O)OCC1c2ccccc2-c2ccccc21
Key: 0.0546

---

- study_conditions: in acetonitrile, 298.15 K
reported_endpoint: solubility (mole fraction)

Exercise: Any idea what its solubility (mole fraction) is? The compound is O=C(N[C@@H](Cc1ccc(O)cc1)C(=O)O)OCC1c2ccccc2-c2ccccc21
Key: 0.00272

---

- study_conditions: in n-butanol, 328.15 K
reported_endpoint: solubility (mole fraction)
Please give only the number in your answer, with no unit.

Exercise: Any idea what its solubility (mole fraction) is? The molecule is O=C(N[C@@H](Cc1ccc(O)cc1)C(=O)O)OCC1c2ccccc2-c2ccccc21
Key: 0.0385

---

- study_conditions: in n-pentanol, 293.15 K
reported_endpoint: solubility (mole fraction)

Exercise: Any idea what its solubility (mole fraction) is? The compound is O=C(N[C@@H](Cc1ccc(O)cc1)C(=O)O)OCC1c2ccccc2-c2ccccc21
Key: 0.0111

---

- study_conditions: in n-butyl acetate, 333.15 K
reported_endpoint: solubility (mole fraction)
Please give only the number in your answer, with no unit.

Exercise: Any idea what its solubility (mole fraction) is? The molecule is O=C(N[C@@H](Cc1ccc(O)cc1)C(=O)O)OCC1c2ccccc2-c2ccccc21
Key: 0.0124

---

- study_conditions: in n-butanol, 308.15 K
reported_endpoint: solubility (mole fraction)
Please give only the number in your answer, with no unit.

Exercise: Any idea what its solubility (mole fraction) is? The molecule is O=C(N[C@@H](Cc1ccc(O)cc1)C(=O)O)OCC1c2ccccc2-c2ccccc21
Key: 0.0198

---

- study_conditions: in n-pentanol, 303.15 K
reported_endpoint: solubility (mole fraction)
Please give only the number in your answer, with no unit.

Exercise: Any idea what its solubility (mole fraction) is? The compound is O=C(N[C@@H](Cc1ccc(O)cc1)C(=O)O)OCC1c2ccccc2-c2ccccc21
Key: 0.0144

---

- study_conditions: in isopropanol, 333.15 K
reported_endpoint: solubility (mole fraction)

Exercise: Any idea what its solubility (mole fraction) is? The compound is O=C(N[C@@H](Cc1ccc(O)cc1)C(=O)O)OCC1c2ccccc2-c2ccccc21
Key: 0.0691

---

- study_conditions: in isobutanol, 333.15 K
reported_endpoint: solubility (mole fraction)

Exercise: Any idea what its solubility (mole fraction) is? The molecule is O=C(N[C@@H](Cc1ccc(O)cc1)C(=O)O)OCC1c2ccccc2-c2ccccc21
Key: 0.0279

---

- study_conditions: in n-butanol, 293.15 K
reported_endpoint: solubility (mole fraction)
Please give only the number in your answer, with no unit.

Exercise: Any idea what its solubility (mole fraction) is? The molecule is O=C(N[C@@H](Cc1ccc(O)cc1)C(=O)O)OCC1c2ccccc2-c2ccccc21
Key: 0.0129

---

- study_conditions: in sec-butanol, 293.15 K
reported_endpoint: solubility (mole fraction)
Please give only the number in your answer, with no unit.

Exercise: Any idea what its solubility (mole fraction) is? The compound is O=C(N[C@@H](Cc1ccc(O)cc1)C(=O)O)OCC1c2ccccc2-c2ccccc21
Key: 0.0146

---

- study_conditions: in sec-butanol, 298.15 K
reported_endpoint: solubility (mole fraction)
Please give only the number in your answer, with no unit.

Exercise: Any idea what its solubility (mole fraction) is? The compound is O=C(N[C@@H](Cc1ccc(O)cc1)C(=O)O)OCC1c2ccccc2-c2ccccc21
Key: 0.018

---

- study_conditions: in methyl acetate, 323.15 K
reported_endpoint: solubility (mole fraction)
Please give only the number in your answer, with no unit.

Exercise: Any idea what its solubility (mole fraction) is? The compound is O=C(N[C@@H](Cc1ccc(O)cc1)C(=O)O)OCC1c2ccccc2-c2ccccc21
Key: 0.0249

---

- study_conditions: in methyl acetate, 318.15 K
reported_endpoint: solubility (mole fraction)
Please give only the number in your answer, with no unit.

Exercise: Any idea what its solubility (mole fraction) is? The compound is O=C(N[C@@H](Cc1ccc(O)cc1)C(=O)O)OCC1c2ccccc2-c2ccccc21
Key: 0.0219

---

- study_conditions: in acetonitrile, 333.15 K
reported_endpoint: solubility (mole fraction)
Please give only the number in your answer, with no unit.

Exercise: Any idea what its solubility (mole fraction) is? The compound is O=C(N[C@@H](Cc1ccc(O)cc1)C(=O)O)OCC1c2ccccc2-c2ccccc21
Key: 0.00884

---

- study_conditions: in ethyl acetate, 308.15 K
reported_endpoint: solubility (mole fraction)
Please give only the number in your answer, with no unit.

Exercise: Any idea what its solubility (mole fraction) is? The compound is O=C(N[C@@H](Cc1ccc(O)cc1)C(=O)O)OCC1c2ccccc2-c2ccccc21
Key: 0.0152

---

- study_conditions: in isobutanol, 328.15 K
reported_endpoint: solubility (mole fraction)
Please give only the number in your answer, with no unit.

Exercise: Any idea what its solubility (mole fraction) is? The compound is O=C(N[C@@H](Cc1ccc(O)cc1)C(=O)O)OCC1c2ccccc2-c2ccccc21
Key: 0.0219

---

- study_conditions: in isopropanol, 293.15 K
reported_endpoint: solubility (mole fraction)
Please give only the number in your answer, with no unit.

Exercise: Any idea what its solubility (mole fraction) is? The molecule is O=C(N[C@@H](Cc1ccc(O)cc1)C(=O)O)OCC1c2ccccc2-c2ccccc21
Key: 0.0147

---

- study_conditions: in n-propyl acetate, 323.15 K
reported_endpoint: solubility (mole fraction)
Please give only the number in your answer, with no unit.

Exercise: Any idea what its solubility (mole fraction) is? The compound is O=C(N[C@@H](Cc1ccc(O)cc1)C(=O)O)OCC1c2ccccc2-c2ccccc21
Key: 0.0126

---

- study_conditions: in n-propyl acetate, 308.15 K
reported_endpoint: solubility (mole fraction)

Exercise: Any idea what its solubility (mole fraction) is? The compound is O=C(N[C@@H](Cc1ccc(O)cc1)C(=O)O)OCC1c2ccccc2-c2ccccc21
Key: 0.00951

---

- study_conditions: in methyl acetate, 298.15 K
reported_endpoint: solubility (mole fraction)
Please give only the number in your answer, with no unit.

Exercise: Any idea what its solubility (mole fraction) is? The compound is O=C(N[C@@H](Cc1ccc(O)cc1)C(=O)O)OCC1c2ccccc2-c2ccccc21
Key: 0.0163

---

- study_conditions: in dimethyl carbonate, 318.15 K
reported_endpoint: solubility (mole fraction)
Please give only the number in your answer, with no unit.

Exercise: Any idea what its solubility (mole fraction) is? The molecule is O=C(N[C@@H](Cc1ccc(O)cc1)C(=O)O)OCC1c2ccccc2-c2ccccc21
Key: 0.00638

---

- study_conditions: in ethyl acetate, 328.15 K
reported_endpoint: solubility (mole fraction)
Please give only the number in your answer, with no unit.

Exercise: Any idea what its solubility (mole fraction) is? The molecule is O=C(N[C@@H](Cc1ccc(O)cc1)C(=O)O)OCC1c2ccccc2-c2ccccc21
Key: 0.0222

---

- study_conditions: in acetone, 318.15 K
reported_endpoint: solubility (mole fraction)
Please give only the number in your answer, with no unit.

Exercise: Any idea what its solubility (mole fraction) is? The compound is O=C(N[C@@H](Cc1ccc(O)cc1)C(=O)O)OCC1c2ccccc2-c2ccccc21
Key: 0.0901

---

- study_conditions: in n-pentanol, 328.15 K
reported_endpoint: solubility (mole fraction)
Please give only the number in your answer, with no unit.

Exercise: Any idea what its solubility (mole fraction) is? The compound is O=C(N[C@@H](Cc1ccc(O)cc1)C(=O)O)OCC1c2ccccc2-c2ccccc21
Key: 0.0324

---

- study_conditions: in acetonitrile, 318.15 K
reported_endpoint: solubility (mole fraction)

Exercise: Any idea what its solubility (mole fraction) is? The compound is O=C(N[C@@H](Cc1ccc(O)cc1)C(=O)O)OCC1c2ccccc2-c2ccccc21
Key: 0.00504
